- TARGET_UNDER_TEST: Human PI3K delta (Homo sapiens)
- Construct: His (N); host or cells: SF9 insect cells (baculovirus)
- Sequence (O00329 whole entry, one chain of several): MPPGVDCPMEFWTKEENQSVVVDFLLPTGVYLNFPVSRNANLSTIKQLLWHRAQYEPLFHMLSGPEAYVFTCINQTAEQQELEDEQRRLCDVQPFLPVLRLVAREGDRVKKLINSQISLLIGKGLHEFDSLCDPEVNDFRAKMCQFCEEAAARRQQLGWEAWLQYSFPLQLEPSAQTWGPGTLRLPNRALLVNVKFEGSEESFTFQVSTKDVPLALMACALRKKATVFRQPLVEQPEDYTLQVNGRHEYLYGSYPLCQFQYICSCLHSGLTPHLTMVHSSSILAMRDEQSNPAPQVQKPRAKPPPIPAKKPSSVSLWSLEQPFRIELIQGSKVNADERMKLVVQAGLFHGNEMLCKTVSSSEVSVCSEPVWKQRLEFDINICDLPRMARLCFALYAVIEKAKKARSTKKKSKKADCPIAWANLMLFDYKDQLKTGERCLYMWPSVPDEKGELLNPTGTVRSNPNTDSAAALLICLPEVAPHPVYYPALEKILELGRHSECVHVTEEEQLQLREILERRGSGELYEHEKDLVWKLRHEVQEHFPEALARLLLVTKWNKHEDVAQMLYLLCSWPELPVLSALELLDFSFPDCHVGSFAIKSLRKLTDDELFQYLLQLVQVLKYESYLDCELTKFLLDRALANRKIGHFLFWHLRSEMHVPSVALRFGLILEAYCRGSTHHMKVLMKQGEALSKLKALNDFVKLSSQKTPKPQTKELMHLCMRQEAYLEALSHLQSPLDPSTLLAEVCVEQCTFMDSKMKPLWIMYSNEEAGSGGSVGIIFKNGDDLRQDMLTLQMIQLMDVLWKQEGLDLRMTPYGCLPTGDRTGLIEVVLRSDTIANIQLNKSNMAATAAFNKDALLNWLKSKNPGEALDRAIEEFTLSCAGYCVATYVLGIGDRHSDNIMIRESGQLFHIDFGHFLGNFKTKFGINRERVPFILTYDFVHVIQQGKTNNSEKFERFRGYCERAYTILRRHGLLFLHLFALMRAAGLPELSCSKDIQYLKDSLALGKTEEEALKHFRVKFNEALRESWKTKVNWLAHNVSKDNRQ
- TEST_NAME: Human PI3K delta enzyme assay (HTRF)
- Assay type: biochemical
- EXPERIMENTAL_CONTEXT: concentration not given; b1389 states 1.0 μM for PI3K δ and γ; read-out: p110 delta Percent Inhibition
inhibition at 1 µM: recorded values
Use % as the unit, but write only the number.

Before answering, review these 3 worked examples.
{"MOLECULE": "CC(c1ccc2cc(F)ccc2c1)c1c(C(=O)O)sc(N2CCOCC2)c1C#N (stereo not shown)", "TARGET_UNDER_TEST": "Human PI3K delta (Homo sapiens)", "inhibition at 1 µM, %": 96}
{"MOLECULE": "N#Cc1c(N2CCOCC2)sc(-c2nnn[nH]2)c1Cc1ccc2ccccc2c1", "TARGET_UNDER_TEST": "Human PI3K delta (Homo sapiens)", "inhibition at 1 µM, %": 111}
{"MOLECULE": "CC(=O)Nc1cc(-c2cc([C@@H](c3ccc(Cl)cc3)N3CCC3)c(-c3nnc[nH]3)s2)ccn1 (single isomer, unassigned)", "TARGET_UNDER_TEST": "Human PI3K delta (Homo sapiens)", "inhibition at 1 µM, %": 109}

Qu. Query: inhibition at 1 µM; subject: CC(=O)Nc1cc(-c2cc(C(OC[C@@H]3CCCN3)c3ccc(Cl)cc3)c(-c3nnc[nH]3)s2)ccn1 (stereo partly shown)
Ans. 112

Qu. Now try COc1ccc2ccc(Cc3c(C(=O)O)sc(N4CCOCC4)c3C#N)cc2c1 .
Ans. 111

Qu. Request: CC(=O)Nc1cc(-c2cc(C(c3ccc(Cl)cc3)N(C)C3CCNCC3)c(-c3nnc[nH]3)s2)ccn1 (stereo not shown)
Ans. 102

Qu. // query: OC(c1ccc(F)c(F)c1)c1cc(-c2ccncc2)sc1-c1nnc[nH]1 (stereo not shown)
Ans. 42

Qu. Next up: OC(c1ccc(Br)cc1)c1cc(-c2ccncc2)sc1-c1nnc[nH]1 (stereo not shown)
Ans. 77

---

- TARGET_UNDER_TEST: Human PI3K alpha (Homo sapiens)
- Construct: His (N); host or cells: SF9 insect cells (baculovirus)
- Sequence (P42336 whole entry): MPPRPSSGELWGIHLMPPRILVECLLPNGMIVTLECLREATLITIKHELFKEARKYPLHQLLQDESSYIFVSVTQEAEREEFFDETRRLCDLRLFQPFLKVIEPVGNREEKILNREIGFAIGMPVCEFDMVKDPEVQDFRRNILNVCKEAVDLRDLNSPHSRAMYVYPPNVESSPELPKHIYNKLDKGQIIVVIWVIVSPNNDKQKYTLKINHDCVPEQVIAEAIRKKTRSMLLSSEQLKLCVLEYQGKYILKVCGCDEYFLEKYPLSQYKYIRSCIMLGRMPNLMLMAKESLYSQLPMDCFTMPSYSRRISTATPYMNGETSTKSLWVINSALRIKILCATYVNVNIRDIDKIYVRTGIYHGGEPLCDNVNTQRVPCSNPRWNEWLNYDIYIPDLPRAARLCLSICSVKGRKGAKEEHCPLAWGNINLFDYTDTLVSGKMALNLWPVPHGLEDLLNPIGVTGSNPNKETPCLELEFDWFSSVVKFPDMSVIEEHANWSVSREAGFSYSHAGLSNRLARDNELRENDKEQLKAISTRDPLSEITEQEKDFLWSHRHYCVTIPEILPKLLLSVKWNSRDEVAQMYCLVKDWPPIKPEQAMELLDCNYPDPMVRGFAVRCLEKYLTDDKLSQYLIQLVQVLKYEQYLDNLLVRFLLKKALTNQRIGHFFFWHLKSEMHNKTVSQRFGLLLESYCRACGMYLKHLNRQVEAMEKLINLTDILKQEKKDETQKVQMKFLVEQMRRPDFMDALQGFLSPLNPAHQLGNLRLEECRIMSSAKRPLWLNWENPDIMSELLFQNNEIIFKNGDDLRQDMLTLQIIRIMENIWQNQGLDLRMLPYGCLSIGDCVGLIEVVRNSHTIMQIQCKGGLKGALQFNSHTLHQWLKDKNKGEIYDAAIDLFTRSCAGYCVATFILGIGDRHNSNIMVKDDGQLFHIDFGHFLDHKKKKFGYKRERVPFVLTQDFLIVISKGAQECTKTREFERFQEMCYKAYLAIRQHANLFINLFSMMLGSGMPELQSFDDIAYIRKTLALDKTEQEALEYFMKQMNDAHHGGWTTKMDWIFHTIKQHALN
- Sequence (P27986 whole entry partner): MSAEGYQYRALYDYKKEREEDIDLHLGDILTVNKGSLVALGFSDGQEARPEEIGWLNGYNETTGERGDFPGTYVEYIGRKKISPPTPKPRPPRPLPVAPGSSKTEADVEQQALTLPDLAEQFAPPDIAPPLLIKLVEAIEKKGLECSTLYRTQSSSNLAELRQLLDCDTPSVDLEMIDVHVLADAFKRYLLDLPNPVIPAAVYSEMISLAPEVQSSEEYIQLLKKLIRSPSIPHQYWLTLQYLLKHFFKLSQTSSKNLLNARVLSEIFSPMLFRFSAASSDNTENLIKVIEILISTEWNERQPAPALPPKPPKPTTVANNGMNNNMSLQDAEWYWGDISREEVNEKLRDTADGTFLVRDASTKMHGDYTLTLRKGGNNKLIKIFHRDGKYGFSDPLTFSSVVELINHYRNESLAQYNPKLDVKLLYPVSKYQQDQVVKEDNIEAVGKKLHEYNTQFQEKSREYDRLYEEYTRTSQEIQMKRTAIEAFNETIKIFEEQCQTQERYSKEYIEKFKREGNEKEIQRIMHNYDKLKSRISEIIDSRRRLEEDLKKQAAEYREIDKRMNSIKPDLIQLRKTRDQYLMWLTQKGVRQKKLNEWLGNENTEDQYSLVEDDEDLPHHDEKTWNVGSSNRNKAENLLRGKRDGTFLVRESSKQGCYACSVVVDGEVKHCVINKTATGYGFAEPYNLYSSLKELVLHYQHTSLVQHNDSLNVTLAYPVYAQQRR
- TEST_NAME: Human PI3K alpha enzyme assay (HTRF)
- Type: biochemical
- EXPERIMENTAL_CONTEXT: concentration not given; b1387 states 1.1 μM for PI3K α and β; read-out: p110 alpha Percent Inhibition
- Method: The catalytic subunits of PI3Ks are cloned into either pDEST8(p110 alpha) or pDEST10(p110beta, p110delta, and p110gamma) as N-terminal His tagged fusion proteins using the Gateway system (Invitrogen, catalog#11804-010 for pDEST8 and 11806-015 for pDEST10). […] For the assay methods described above, test compound percent inhibition, at various concentrations, is calculated relative to control (DMSO and EDTA) treated samples. […]
Cut-off 60% on inhibition at 1.1 µM, inclusive. At or above means 1; below means -1.

Observe how each entry below is paired with its result.
{"COMPOUND": "COc1ccc(C(O)c2cc(-c3ccncc3)sc2-c2nnc[nH]2)cc1OC (centres unmarked)", "ASSIGNED_CLASS": -1}
{"COMPOUND": "CCN(CC)C(c1ccc(Cl)cc1)c1cc(-c2ccnc(Cl)c2)sc1-c1nnc[nH]1 (centres unmarked)", "ASSIGNED_CLASS": -1}
{"COMPOUND": "CC(c1ccc2ccccc2c1)c1c(C(=O)O)sc(N2CCOCC2)c1C#N (centres unmarked)", "ASSIGNED_CLASS": 1}

Qu. Identify whether the reported inhibition at 1.1 µM of the following compound is 60% or greater: OC(c1ccc(Cl)cc1Cl)c1cc(-c2ccncc2)sc1-c1nnc[nH]1 (centres unmarked)
Ans. -1

Qu. Cool, now CC(=O)Nc1cc(-c2cc(C(NCCN(C)C)c3ccc(Cl)cc3)c(-c3nnc[nH]3)s2)ccn1 (centres unmarked)
Ans. 1

Qu. Same thing, different compound: CC(=O)Nc1cc(-c2nc(C(O)c3ccc(Cl)cc3)c(-c3nnc[nH]3)s2)ccn1 (centres unmarked)
Ans. 1

Qu. Would you mind doing N#Cc1c(N2CCOCC2)sc(C(=O)O)c1C(F)(F)c1ccc(Cl)cc1 as well?
Ans. -1

Qu. How about OC(c1ccc(Br)cc1)c1cc(-c2ccncc2)sc1-c1nnc[nH]1 (centres unmarked) ?
Ans. -1

Qu. Request: N#Cc1c(-c2ccncc2)sc(C(=O)O)c1Cc1ccc2ccccc2c1
Ans. -1

Qu. Another compound: COC(=O)Nc1cc(-c2sc(-c3nnc[nH]3)c(Cc3ccc4ccccc4c3)c2C#N)ccn1
Ans. -1

Qu. Then CN(C)CCC(c1ccc(Cl)c(Cl)c1)c1c(C(=O)O)sc(N2CCOCC2)c1C#N (centres unmarked) ?
Ans. -1

Qu. Now the compound Clc1ccc(Cc2nc(N3CCOCC3)sc2Cc2nnn[nH]2)cc1Cl
Ans. -1
